Reference source for all entries: patent US10954232B2

Listed molecules paired with reported IC50
target-desc: ALK5 kinase (Homo sapiens)
Construct: GST; purchased Thermo Fisher Scientific Solutions
Sequence (P36897 34-503): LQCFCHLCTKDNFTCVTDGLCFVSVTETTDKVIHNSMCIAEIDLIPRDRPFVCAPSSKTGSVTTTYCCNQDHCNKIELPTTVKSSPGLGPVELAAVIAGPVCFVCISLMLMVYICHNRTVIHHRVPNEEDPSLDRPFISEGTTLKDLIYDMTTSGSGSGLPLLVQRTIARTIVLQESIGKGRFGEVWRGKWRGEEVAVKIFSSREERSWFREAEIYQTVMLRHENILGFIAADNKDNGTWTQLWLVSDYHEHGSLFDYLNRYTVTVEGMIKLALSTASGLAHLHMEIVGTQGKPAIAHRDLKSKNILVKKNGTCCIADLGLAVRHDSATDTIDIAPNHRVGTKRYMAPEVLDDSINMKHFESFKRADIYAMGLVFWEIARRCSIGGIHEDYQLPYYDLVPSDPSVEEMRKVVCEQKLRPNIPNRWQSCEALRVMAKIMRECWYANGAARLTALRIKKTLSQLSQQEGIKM
assay-method-text: Activity inhibition test on ALK5 enzyme (LanthaScreen Eu binding kinase assay)
assay-setup: kinase tracer 178, 60 minutes at room temperature

# count of solved cases: 5
given_smiles=Cc1cccc(-n2nc(C(=O)Nc3ccccc3Cl)cc2-c2ccc3ncsc3c2)n1 recorded_endpoint=IC50 assay_value="> 100 nM"
given_smiles=Cc1cccc(-n2nc(C(=O)Nc3cccc(F)c3F)cc2-c2ccc3ncnn3c2)n1 recorded_endpoint=IC50 assay_value="10 to 100 nM"
given_smiles=Cc1cccc(-n2nc(C(=O)Nc3ccccc3)cc2-c2ccc3ncsc3c2)n1 recorded_endpoint=IC50 assay_value="10 to 100 nM"
given_smiles=CNC(=O)c1ccc(NC(=O)c2cc(-c3ccc4nccnc4c3)n(-c3cccc(C)n3)n2)cc1 recorded_endpoint=IC50 assay_value="< 100 nM"
given_smiles=COc1cc(NC(=O)c2cc(-c3ccc4ncsc4c3)n(-c3cccc(C)n3)n2)ccn1 recorded_endpoint=IC50 assay_value="3.2 nM"

Bench note, ALK5 kinase (Homo sapiens): CC(=O)c1cccc(NC(=O)c2cc(-c3ccc4nccnc4c3)n(-c3cccc(C)n3)n2)c1 , IC50 reads < 100 nM

The reported ALK5 kinase (Homo sapiens) IC50 of Cc1cccc(-n2nc(C(=O)Nc3ccc4c(c3)OCO4)cc2-c2ccc3ncnn3c2)n1 is 3.5 nM

Param item: Cc1cccc(-n2nc(C(=O)Nc3cccc(C(F)(F)F)c3)cc2-c2ccc3ncsc3c2)n1 ; param system: ALK5 kinase (Homo sapiens); output IC50: ~100 nM

IC50 of Cc1cccc(-n2nc(C(=O)Nc3cccc(F)c3)cc2-c2ccc3ncnn3c2)n1 , assay on ALK5 kinase (Homo sapiens), is 10 to 100 nM
